B1: LINE1-mini (parent)
chain: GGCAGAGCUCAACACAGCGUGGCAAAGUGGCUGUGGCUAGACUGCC

Variants of: B1
Assay: self-cleavage, relative activity (ratio to wild type); higher = more cleavage; in vitro, sequencing; the parent is a self-cleaving ribozyme
self-cleavage below 0.2 gives FALSE; self-cleavage at or above it gives TRUE.

G1U A6G = FALSE

stdin: I'd appreciate it if you could say whether G1U G2C has self-cleavage at least equal to 0.2.
stdout: FALSE

stdin: Reported self-cleavage reaches at least 0.2 for U28C C45U ?
stdout: TRUE

stdin: Answer whether self-cleavage of A16C G27C is greater than or equal to 0.2.
stdout: FALSE

stdin: Hi team, for C10G C23G , is the recorded self-cleavage at or above 0.2?
stdout: FALSE

stdin: Reported self-cleavage reaches at least 0.2 for U9C G19U ?
stdout: FALSE

stdin: Assess whether reported self-cleavage for C3A C15U sits at 0.2 or higher.
stdout: TRUE

stdin: Is self-cleavage for A39C A41C at or above 0.2?
stdout: TRUE

stdin: Quick check, self-cleavage >= 0.2? U20C C23U
stdout: TRUE

stdin: Is reported self-cleavage greater than or equal to 0.2 here: G2U G17C
stdout: FALSE
